test system: NCI-H460 lung; experiment: NCI-60 one-dose screen, 48 h; conditions: 10 µM unless noted
Compounds without any hit were thinned out: in the full panel of roughly 83,000, 20% have a hit. Active and inactive are the calls of the source. Rule for the calls: active = growth percent below 10; inactive = the rest.
Bench note: report the call from active, inactive

# compound, assayed-system, class-assignment
measured = [
    ("CC(=O)Nc1ccc(C(=O)/C=C/c2ccccc2)cc1", "NCI-H460 lung", "inactive"),
]

Hi team, can someone confirm the assay call for Nc1c(C(=O)Nc2ccccc2)sc2nc3c(cc12)CCCCCC3 ?
active

Hi team, can someone confirm the assay call for CCc1c(C(=O)N[C@@H]2c3cc(Cl)ccc3CC[C@@H]2O)[nH]c(C)c1C(C)=O ?
inactive

Hi team, can someone confirm the assay call for C#CC[C@H](N)C(=O)O ?
inactive

----------
test system: SW-620 colon; assay: NCI-60 one-dose screen, 48 h (100 = growth as untreated, 0 = no growth, -100 = all killed); conditions: 10 µM unless noted
The panel holds about 83,000 compounds, 20% with a hit somewhere; the sample as a whole holds those more often.
Field 'label' (enum: TRUE / FALSE). Set to TRUE when growth is strictly under 40%; else FALSE.

Quick check: growth of CC1=NN(c2cccc(Cl)c2)C(=O)/C1=C\c1cn(CC(O)CN2CCCCC2)c2ccccc12 (centres undefined) under 40%?
TRUE

Quick check: growth of C[C@@H]1CC[C@@H]2[C@@H]1[C@H](OC(=O)/C=C/c1ccccc1)[C@]1(CCCOCCOCCOCCOC(=O)CCCC[C@@H]3SC[C@@H]4NC(=O)N[C@@H]43)C[C@@H](OC(=O)CO)[C@@]2(C)O1 under 40%?
FALSE

Quick check: growth of COc1ccc(-c2nnc(SCC(=O)NC3=NN=C(c4ccccc4)CS3)o2)cc1 under 40%?
FALSE

Quick check: growth of COc1ccc(/C(C)=C(\c2ccc(Cl)cc2)c2ccc(OCCN3CCCC3)cc2)cc1F under 40%?
TRUE

----------
tested on: MOLT-4 leukemia; test: NCI-60 one-dose screen, 48 h; conditions: 10 µM unless noted
Compounds without any hit were thinned out: in the full panel of roughly 83,000, 20% have a hit. The source made the active and inactive calls. The calls were made as follows: active = growth percent below 10; inactive = the rest.
Bench note: report the call from active, inactive

Look over these answered cases.
# compound, assayed-system, class-assignment
records = [
    ("COc1ccc(-c2cncnc2N)cc1OC", "MOLT-4 leukemia", "inactive"),
    ("NS(=O)(=O)c1cnccc1-n1ccc(=O)c(S(N)(=O)=O)c1", "MOLT-4 leukemia", "inactive"),
    ("Nc1ccc(-c2cc3c(Nc4ccc(OCc5cccc(F)c5)c(Cl)c4)ncnc3s2)cc1", "MOLT-4 leukemia", "inactive"),
    ("Nc1c(-c2nc3ccccc3c(=O)[nH]2)nnn1-c1ccc(Cl)cc1", "MOLT-4 leukemia", "inactive"),
]

Hi team, can someone confirm the assay call for COc1ccc(/C(C)=N/NS(=O)(=O)c2ccc(C)cc2)cc1OC ?
inactive

Hi team, can someone confirm the assay call for Cc1cc(-c2ccccc2)cc(SC#N)[n+]1[O-] ?
inactive

Hi team, can someone confirm the assay call for NS(=O)(=O)c1cn(-c2ncnc3nc[nH]c23)ccc1=O ?
inactive

Hi team, can someone confirm the assay call for CC(=O)c1sc(-c2ccccc2)cc1N ?
inactive

Hi team, can someone confirm the assay call for C[C@@H]1CC[C@@H]2[C@@H]1[C@H](OC(=O)/C=C/c1ccccc1)[C@]1(C3CCCCC3)C[C@@H](NC(=O)CO)[C@@]2(C)O1 ?
inactive

Hi team, can someone confirm the assay call for CSc1nc(N)c(CNC(C)c2ccccc2)c(=O)n1C (stereo unspecified) ?
inactive

Hi team, can someone confirm the assay call for Cn1cc(Nc2nccc(-c3ccc(N4CCCC4)c(C#N)c3)n2)cn1 ?
inactive

----------
test system: OVCAR-5 ovarian; assay: NCI-60 one-dose screen, 48 h (100 = growth as untreated, 0 = no growth, -100 = all killed); details: 10 µM unless noted
Compounds without any hit were thinned out: in the full panel of roughly 83,000, 20% have a hit.
Label scheme for growth: lower than 80% is condition not met, 80% and above is condition met.

Does the compound O=C(/C=C/C12c3ccccc3C(c3ccccc31)C1C(=O)N(c3ccccc3)C(=O)C12)c1ccc(Cl)cc1 (stereo not given) have recorded growth that is 80% or more?
condition not met

Does the compound CNC(=O)c1cc(Oc2ccc3nc(Nc4cc(Cl)cc(Cl)c4)ccc3c2)ccn1 have recorded growth that is 80% or more?
condition met

Does the compound CO/C(=C1/NC(=O)C(Cc2ccc(O)c(Br)c2)N(C)C(=O)C(C)NC(=O)CCC/C=C(\C)CCC(C)OC1=O)c1ccccc1 (stereo not given) have recorded growth that is 80% or more?
condition not met

Does the compound CCOC(=O)C(=CNc1ccccc1[N+](=O)[O-])C(=O)OCC have recorded growth that is 80% or more?
condition met

----------
Tested on: HT29 colon
Experiment: NCI-60 one-dose screen, 48 h
Conditions: 10 µM unless noted
Experimental: Growth inhibition of the HT29 human tumor cell line is measured as a screen for anti-cancer activity. Cells are grown in 96 well plates and exposed to the test compound for 48 hours. Compounds are tested at a single concentration, which is 10^-5 M for most compounds. The reported endpoint is percent growth (GI% or GIPRCNT), where numbers from 0 - 100% represent growth inhibition, and numbers from -100% - 0 represent cell death. For example, a value of 40 represents 60% growth inhibition. […]
Compounds without any hit were thinned out: in the full panel of roughly 83,000, 20% have a hit. The source made the active and inactive calls. The calls were made as follows: active = growth percent below 10; inactive = the rest.
Bench note: report the call from Y = active, N = inactive

Look over these answered cases.
# molecule, class-assignment
data = [
    ("CC(C)c1ccc(NC(=O)Cc2ccc(Nc3ncnc4cc(-c5cnn(CCN(C)C)c5)ccc34)cc2)cc1", "Y"),
    ("CCN(CC)CCOc1ccc(/C(=C(\\C)c2ccc(OC)c(F)c2)c2ccc(Cl)cc2)cc1", "N"),
]

Hi team, can someone confirm the assay call for OC(COc1cccc2ccccc12)CN1CCN(c2ccccc2)CC1 (stereo unspecified) ?
N

Hi team, can someone confirm the assay call for CCOC(=O)c1nnn(-c2ccccc2)c1C1=CN(C)CCC1 ?
N

Hi team, can someone confirm the assay call for CCc1nc2ccccc2[nH]1 ?
N

Hi team, can someone confirm the assay call for CC(C)CCC[C@@H](C)[C@H]1CCC2C3=CCn4c(=O)ccc(=O)n4C3CC[C@@]21C (stereo partly specified) ?
Y

Hi team, can someone confirm the assay call for CN1C[C@@H](c2ccc(Cl)cc2)[C@]2(NC(=S)N(c3ccc(F)c(Cl)c3)C2=O)[C@@]12C(=O)NC1C=CC(Cl)=C[C@H]12 (stereo partly specified) ?
N

Hi team, can someone confirm the assay call for C=C(C)[C@@H]1CC[C@]2(CNCCO)CC[C@]3(C)[C@H](CC[C@@H]4[C@@]5(C)CCC(N)[C@@](C)(CO)[C@@H]5CC[C@]43C)[C@@H]12 (stereo partly specified) ?
Y

Hi team, can someone confirm the assay call for COc1ccc(/C=C2\COc3ccc(O)cc3C2=O)c(OC)c1 ?
N

Hi team, can someone confirm the assay call for Cc1ccc(NC(=O)C(Cl)Cl)cc1 ?
N

Hi team, can someone confirm the assay call for COc1ccc(-c2cncnc2N)cc1OC ?
N

Hi team, can someone confirm the assay call for COc1ccc(C2CC(c3ccccc3)=NN2c2nc(C)c(C(C)=O)s2)cc1 (stereo unspecified) ?
N

Hi team, can someone confirm the assay call for CCN(CC)CCOC(=O)Nc1ccccc1Cl ?
N

Hi team, can someone confirm the assay call for CCCCOc1nc2ccc(Cl)cc2cc1/C=C/C(=O)/C=C1/CC(c2cc3cc(Cl)ccc3nc2OCCCC)Nc2ccccc2N1 (stereo unspecified) ?
N

Hi team, can someone confirm the assay call for N#Cc1c(N)n2c(nc1=Nc1ccc(Cl)cc1)sc1cc(Cl)ccc12 ?
N

Hi team, can someone confirm the assay call for O=C(Oc1ccc([N+](=O)[O-])cc1)c1ccc(CBr)cc1 ?
N

Hi team, can someone confirm the assay call for COc1cc2c(cc1OC)-c1ccc3cc4c(cc3c1N(CCCN(C)C)C2)OCO4 ?
N

Hi team, can someone confirm the assay call for O=C1C2=C(CCN(Cc3ccccc3)C2)N2CCN=C2N1Cc1ccc(C(F)(F)F)cc1 ?
N

Hi team, can someone confirm the assay call for CC(C)n1nc(C#Cc2cccc(O)c2)c2c(N)ncnc21 ?
Y

Hi team, can someone confirm the assay call for COc1ccc(C(=O)/C=C/C23c4ccccc4C(c4ccccc42)C2C(=O)NC(=O)C23)cc1 (stereo unspecified) ?
N

Hi team, can someone confirm the assay call for NS(=O)(=O)Oc1ccc(NC(=O)C23CC4CC(CC(C4)C2)C3)cc1Cl ?
N

----------
system: SNB-75 CNS; test: NCI-60 one-dose screen, 48 h (100 = growth as untreated, 0 = no growth, -100 = all killed); conditions: 10 µM unless noted
Compounds without any hit were thinned out: in the full panel of roughly 83,000, 20% have a hit.
Label scheme for growth: lower than 80% is label 0, 80% and above is label 1.

Look over these answered cases.
# molecule, assayed-system, class-assignment
rows = [
    ("N#C/C(=C\\c1ccc2c(c1)OCO2)n1nnc2ccccc21", "SNB-75 CNS", "label 0"),
    ("CCc1c(C(=O)N[C@@H]2c3cc(Cl)ccc3CC[C@@H]2O)[nH]c(C)c1C(C)=O", "SNB-75 CNS", "label 0"),
    ("C[C@@H]1CC[C@@H]2[C@@H]1[C@H](OC(=O)c1ccc3ccccc3c1)[C@]1(C3CCCCC3)C[C@@H](OC(=O)CO)[C@@]2(C)O1", "SNB-75 CNS", "label 0"),
    ("Cc1nc(Nc2ccc(NC(=S)Nc3ccccc3)cc2)nc2nc(Nc3cccc(Cl)c3)[nH]c(=O)c12", "SNB-75 CNS", "label 1"),
    ("C=CC(=O)Nc1cccc(C)c1Nc1cc(-c2cccnc2Cc2c(C)c(OC)cc(OC)c2C)ncn1", "SNB-75 CNS", "label 0"),
    ("CCCCOc1nc2ccc(Cl)cc2cc1/C=C/C(=O)/C=C1/CC(c2cc3cc(Cl)ccc3nc2OCCCC)Nc2ccccc2N1 (centres undefined)", "SNB-75 CNS", "label 1"),
    ("COc1cc2oc(-c3cccc(C(=O)Nc4ccc(C)cc4)c3)cc(=O)c2c(OC)c1OC", "SNB-75 CNS", "label 0"),
]

Does the molecule CC(=O)OCCc1ccccc1 have recorded growth that is 80% or more?
label 0

Where do these numbers come from? They come from PubChem BioAssay (NCI).
